Target: P2X purinoceptor 7 (Homo sapiens, UniProt Q99572)
Sequence (Q99572 whole entry): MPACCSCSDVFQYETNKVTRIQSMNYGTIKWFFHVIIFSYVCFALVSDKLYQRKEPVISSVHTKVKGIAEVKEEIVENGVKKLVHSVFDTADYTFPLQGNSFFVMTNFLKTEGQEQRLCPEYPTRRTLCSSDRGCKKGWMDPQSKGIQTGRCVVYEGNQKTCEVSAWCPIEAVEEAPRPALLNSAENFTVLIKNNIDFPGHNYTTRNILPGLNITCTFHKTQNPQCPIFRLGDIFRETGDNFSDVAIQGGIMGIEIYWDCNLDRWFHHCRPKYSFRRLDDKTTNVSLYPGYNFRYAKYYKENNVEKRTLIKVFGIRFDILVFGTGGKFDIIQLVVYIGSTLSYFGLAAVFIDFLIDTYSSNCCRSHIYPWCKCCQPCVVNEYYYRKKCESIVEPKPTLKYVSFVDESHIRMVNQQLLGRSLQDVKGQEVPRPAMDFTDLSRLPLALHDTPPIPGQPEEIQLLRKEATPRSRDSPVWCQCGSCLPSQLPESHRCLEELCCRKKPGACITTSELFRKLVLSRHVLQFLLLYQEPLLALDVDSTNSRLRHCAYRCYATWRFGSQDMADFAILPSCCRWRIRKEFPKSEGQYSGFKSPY
Test: Antagonist activity against human P2X7R stably transfected in human 1321N1 cells incubated for 30 mins by Fura-2 AM staining based calcium influx assay
Type: cell-based
experimental.endpoint: IC50 (nM)
Form entry: value (nM) — number only.

| molecule | unit | measured.result |
| --- | --- | --- |
| O=C(NC(=S)Nc1ccc([N+](=O)[O-])cc1)c1ccc2c(c1)OCO2 | nM | 1890 |
| NS(=O)(=O)c1cccc(NC(=S)NC(=O)c2ccc3c(c2)OCO3)c1 | nM | 110 |
| CC(C)c1ccc(NC(=S)NC(=O)c2ccc3c(c2)OCO3)c(Br)c1 | nM | 13100 |

Below: the item to evaluate.
Data request: I would be grateful if you could share the reported IC50 for "O=C(NC(=S)Nc1cccnc1Cl)c1ccc2c(c1)OCO2" .
Data returned: 34
